- TEST_NAME: Single oral dose pharmacokinetics: RvE1 exposure in blood plasma, small intestine tissue and colon tissue
- Format: in vivo, mouse
- CONDITION_LABEL: male, C57BL6/J, mouse, colon tissue; Colon; single oral dose 10 mg/kg RvE1-Mg-di-lysinate; read-out: AUC0-8 of RvE1
Where a name gives a salt, the structure may show the parent alone.
QUANTITY_MEASURED: AUC(0-t) (ng·h/mL)
Express the result in ng·h/mL but write the number alone.

Using the record for CC[C@@H](O)/C=C/C=C\C[C@@H](O)/C=C/C=C/C=C\[C@@H](O)CCCC(=O)O [RvE1-Mg-Lys, bis(RvE1) magnesium L-lysinate salt] , report its AUC(0-t).
72.9

* * *

- TEST_NAME: Single oral dose pharmacokinetics: RvE1 exposure in blood plasma, small intestine tissue and colon tissue
- Type: in vivo, mouse
- CONDITION_LABEL: male, C57BL6/J, mouse, colon tissue; Colon; single oral dose 10 mg/kg RvE1-Mg-di-lysinate
Counter-ions that a name gives are not always drawn.
QUANTITY_MEASURED: Tmax (h)
Express the result in h but write the number alone.

Using the record for CC[C@@H](O)/C=C/C=C\C[C@@H](O)/C=C/C=C/C=C\[C@@H](O)CCCC(=O)O [RvE1-Mg-Lys, bis(RvE1) magnesium L-lysinate salt] , report its Tmax.
4

* * *

- TEST_NAME: Pharmacokinetic analysis of blood and colon tissue after intracolonic administration
- Format: in vivo
- CONDITION_LABEL: mouse, 15 ug/day, colon tissue, read-out: Colon Cmax of RvE1
Structures can show the parent of a compound that is named as a salt.
QUANTITY_MEASURED: Cmax (ng/g)
Express the result in ng/g but write the number alone.

Using the record for CC[C@@H](O)/C=C/C=C\C[C@@H](O)/C=C/C=C/C=C\[C@@H](O)CCCC(=O)O [RvE1-Mg-Lys, bis(RvE1) magnesium L-lysinate salt] , report its Cmax.
2800

* * *

- TEST_NAME: Single oral dose pharmacokinetics: RvE1 exposure in blood plasma, small intestine tissue and colon tissue
- Type: in vivo, mouse
- CONDITION_LABEL: male, C57BL6/J, mouse, plasma; Blood; single oral dose 10 mg/kg RvE1-Mg-di-lysinate; read-out: AUC0-8 of RvE1
Where a name gives a salt, the structure may show the parent alone.
QUANTITY_MEASURED: AUC(0-t) (ng·h/mL)
Express the result in ng·h/mL but write the number alone.

Using the record for CC[C@@H](O)/C=C/C=C\C[C@@H](O)/C=C/C=C/C=C\[C@@H](O)CCCC(=O)O [RvE1-Mg-Lys, bis(RvE1) magnesium L-lysinate salt] , report its AUC(0-t).
128

* * *

- TEST_NAME: Pharmacokinetic analysis of blood and colon tissue after intracolonic administration
- Format: in vivo
- CONDITION_LABEL: mouse, 15 ug/day, blood, read-out: Blood Cmax of RvE1
Where a name gives a salt, the structure may show the parent alone.
QUANTITY_MEASURED: Cmax (ng/mL)
Express the result in ng/mL but write the number alone.

Using the record for CC[C@@H](O)/C=C/C=C\C[C@@H](O)/C=C/C=C/C=C\[C@@H](O)CCCC(=O)O [RvE1-Mg-Lys, bis(RvE1) magnesium L-lysinate salt] , report its Cmax.
0.48

* * *

- TEST_NAME: Pharmacokinetic analysis of blood and colon tissue after intracolonic administration
- Assay type: in vivo
- CONDITION_LABEL: mouse, 15 ug/day, colon, read-out: RvE1 Tmax (converted)
- Text: Pharmacokinetic analysis of blood and colon tissue samples were collected in the course of the intracolonic efficacy study and these confirmed that intracolonic administration of RvE1-Mg-di-lysinate is associated with predominantly local RvE1 exposure and minimal uptake into circulation.
Structures can show the parent of a compound that is named as a salt.
QUANTITY_MEASURED: Tmax (min)
Express the result in min but write the number alone.

Using the record for CC[C@@H](O)/C=C/C=C\C[C@@H](O)/C=C/C=C/C=C\[C@@H](O)CCCC(=O)O [RvE1-Mg-Lys, bis(RvE1) magnesium L-lysinate salt] , report its Tmax.
15

* * *

- TEST_NAME: Single oral dose pharmacokinetics: RvE1 exposure in blood plasma, small intestine tissue and colon tissue
- Type: in vivo, mouse
- CONDITION_LABEL: male, C57BL6/J, mouse, small intestine tissue; Small Intestine; single oral dose 10 mg/kg RvE1-Mg-di-lysinate
Where a name gives a salt, the structure may show the parent alone.
QUANTITY_MEASURED: Cmax (ng/mL)
Express the result in ng/mL but write the number alone.

Using the record for CC[C@@H](O)/C=C/C=C\C[C@@H](O)/C=C/C=C/C=C\[C@@H](O)CCCC(=O)O [RvE1-Mg-Lys, bis(RvE1) magnesium L-lysinate salt] , report its Cmax.
346

* * *

- TEST_NAME: Single oral dose pharmacokinetics: RvE1 exposure in blood plasma, small intestine tissue and colon tissue
- Format: in vivo, mouse
- CONDITION_LABEL: male, C57BL6/J, mouse, plasma; Blood; single oral dose 10 mg/kg RvE1-Mg-di-lysinate
Where a name gives a salt, the structure may show the parent alone.
QUANTITY_MEASURED: Cmax (ng/mL)
Express the result in ng/mL but write the number alone.

Using the record for CC[C@@H](O)/C=C/C=C\C[C@@H](O)/C=C/C=C/C=C\[C@@H](O)CCCC(=O)O [RvE1-Mg-Lys, bis(RvE1) magnesium L-lysinate salt] , report its Cmax.
471

* * *

- TEST_NAME: Single oral dose pharmacokinetics: RvE1 exposure in blood plasma, small intestine tissue and colon tissue
- Type: in vivo, mouse
- CONDITION_LABEL: male, C57BL6/J, mouse, small intestine tissue; Small Intestine; single oral dose 10 mg/kg RvE1-Mg-di-lysinate
Structures can show the parent of a compound that is named as a salt.
QUANTITY_MEASURED: Tmax (h)
Express the result in h but write the number alone.

Using the record for CC[C@@H](O)/C=C/C=C\C[C@@H](O)/C=C/C=C/C=C\[C@@H](O)CCCC(=O)O [RvE1-Mg-Lys, bis(RvE1) magnesium L-lysinate salt] , report its Tmax.
2

* * *

- TEST_NAME: Single oral dose pharmacokinetics: RvE1 exposure in blood plasma, small intestine tissue and colon tissue
- Format: in vivo, mouse
- CONDITION_LABEL: male, C57BL6/J, mouse, small intestine tissue; Small Intestine; single oral dose 10 mg/kg RvE1-Mg-di-lysinate; read-out: AUC0-8 of RvE1
- Method: To establish the oral pharmacokinetics (PK) of RvE1-Mg-di-lysinate, a study was conducted to investigate RvE1 exposure in blood plasma, small intestine tissue, and colon tissue following a single oral dose of RvE1-Mg-di-lysinate (10 mg/kg) in 8-week old male C57BL6/J mice at various time points up to 8 hours post-dose. RvE1 levels were quantified in all tissue samples by HPLC-MS/MS. […]
Structures can show the parent of a compound that is named as a salt.
QUANTITY_MEASURED: AUC(0-t) (ng·h/mL)
Express the result in ng·h/mL but write the number alone.

Using the record for CC[C@@H](O)/C=C/C=C\C[C@@H](O)/C=C/C=C/C=C\[C@@H](O)CCCC(=O)O [RvE1-Mg-Lys, bis(RvE1) magnesium L-lysinate salt] , report its AUC(0-t).
533
